Experiment: label from the status in PepcDB records
PROPERTY NAME: protein production

# count of solved cases: 5
- SEQUENCE CONTENT: "MEQVIAQVIKRQQTEERPPDVLSQQTTKYEKRNSASLRKRKNSSKLYLKTDQNWMALREKLASNSIHDKGKYRQKRESNVTCFKSGVESGIQNSSVRSRETQVTFCDGTVPSQGLELANSKSTAEISSRNEIPRLTKVVALDCEFVGVGKLGKEHSLARVSIVNFKGEVLYDKYVLNDKEPVVDYRTSVSGIRPEHLRSSDAVSFEQAQRDVYSIIRNRILVGHAIHHDMHALLLSHPRKLIRDTSKWRGLRSHHLSRKTPSLRKLAQEILGIRIQDGEHDSVEDARATLMIYKRFAKEWEMELQTKKVKLARKKHR"
  protein production: "failed"
- SEQUENCE CONTENT: "MTDESDSTAHVSCIIPVYNDSVGIKNTLRSVVGQEYHGYDVYVVDNGSTDGSRRRVRNCAAESDDIQLLVEDEVQGSYAARKTGVQNAESDVLAFLDADETVDEDWLETALGAMQEQDVDYLGCNVELTCPEDTLVGRYNARTGFPVEEYLEDQNYAPTCALLVRRKVFEDVGPFDARLISGGDREFGDRVHDAGYEQGYAENATVYHPARTSLESLAKKNFRVGRGFCQKQRYYPERYGKPGIPPTPSGPSGGDDGDEPDASLTRLAFTLLSIAMLACRGVGYYYEFVVGEENDDIPAPTSLEHHHHHH"
  protein production: "failed"
- SEQUENCE CONTENT: "MTLQETLNSEYQISFEEAQATAKIVDDLAEAEQKLKNLERQIKALGPINLDAIAQFDEVNERFTFLSSQKDDLLEAKNLLLSTIDDMNDEVKIRFKTSFDAIRESFKTTFAQMFVSGLADLELTSDNLLEAGVEIKVQPPGKKLSSLNLMSGGEKALTALALIFAILRVRTVPFVVLDEVEAALDEANVKRFGDYMNHFDNSNQFIVVTHRRGTMAAAGSMYGVTMADAGVSKMISVKLDSAIN"
  protein production: "failed"
- SEQUENCE CONTENT: "MAEPKQSSLSEVKTNVIGSRKEEKESMFHGKETHGRSEDIDEKTRVDDVKGPGVLGRMMEEMEAIVDAVTPNKSSDK"
  protein production: "failed"
- SEQUENCE CONTENT: "MEEWPALQWSQGTPASGPALQALEEYAFVPRDDESRQGIRTDALLVIRDGRLLYERYAGATGPQTPHLAWSASKSLLAVLLGVAFGEGRFQLQDPAAKFYPPLEAHPDITLADLLHWASGLDWQEDYEYAPLNSSVVAMLYTRGHRDMAAFTVQQAASGPPGQVFRYSSGDSNLLAASLRGMVGEGQYADYPWRALFEPLGITQAVWERDAAGTFVASSYLYLTARDLARIGLLMQRDGRWRDRQLLPKAWVEFCRTPFRGYRANQDVAVAGGHWWLNREVDGAPRPWPDAPADTYAALGHWGQALYVLPAQRLVIVRYGDDRDGSYQHNELLKRVLAAFATPEQPLEHHHHHH"
  protein production: "failed"

Need protein production, item MIVAWTLGIFGDDLPKGGARETGLLVHVSAGLLILAALIMRLVWRAAVPPPPPEPNEFRRWLGAFADPSARLFHYTLYALLVVVPVAGIVTQFARGEALPLLGIYEISSPWIRDRAFAHSVKEIHEIAAHALVFVAFFHAGAALIHHIVFRDNTLNRMLPRSK
failed

----------
Assay: label from the status in PepcDB records
PROPERTY NAME: protein production

- SEQUENCE CONTENT: "MSAEAADREAVSGSRPCTPPQTSWFEFLLNPSLLEQHLHSPHPDPSPVQLIFQFLEQASKPSVNEQNQVQPPVDNRRNRTLKLMALKVAAHLRWDLNMLEKGLTIPVLNMLLNELLCVSHVPPGVKHVDLDLSSLPPTTAMAVVFYNRWAIRTIVLSSFPEKQTKPGPHQLNMMNMLQQEKEHTENILSVLREQATDSIMVLEGALSIKKDFYIHL"
  RECORDED RESULT: "not failed"
- SEQUENCE CONTENT: "AGVMTGAKFTQIQFGMTRQQVLDIAGAENCETGGSFGDSIHCRGHAAGDYYAYATFGFTSAAADAKVDSKSQEKLLAPSAPTLTLAKFNQVTVGMTRAQVLATVGQGSCTTWSEYYPAYPSTAGVTLSLSCFDVDGYSSTGAYRGSAHLWFTDGVLQGKRQWDLV"
  RECORDED RESULT: "not failed"

----------
Assay: label from the status in PepcDB records
PROPERTY NAME: protein production

The cases that follow already have their protein production on record.
- SEQUENCE CONTENT: "MQNTKLYSLTLIALGAAIIAVLSPLSIPIGIVPVTLQTLAVGLVATVLKARETFFAILLYLLLGFIGIPVFTGGTSGIAVLFGPTGGFLIAFLIMGTLISFGLHQINYKTIPAFIINIVGHLLMLVIGTLWLKFFTNVDWSLALKLGFTPFVIVEIIKAVLVTIFGLALIRALSHTNKYFTN"
  PROPERTY NAME: "protein production"
  RECORDED RESULT: "failed"
- SEQUENCE CONTENT: "MTLFTLLLTLAWERLFKQGEHWQIDHRLEVIFRHVSPPSLFQTLFLTLCSMGVVAALLWLTSGILFGLISLLLWIVISLMCIGAGEIRQHYRRYLQAAQRGESDASREMAAELALIHGLPVGTSESEQLKELQNALLWINFRFYLAPLFWFVVAGPYGPVTLMGYAFLRARQTWLARHHTPLERAQSGVDSLLHWLDWIPARLAGAAYALLGHGEKALPAWFASLGDSRSSQYWVLTQLAQFSLARESHIEPVETPKAAVTLAKKVTLVLVVVVALLTIYGALV"
  PROPERTY NAME: "protein production"
  RECORDED RESULT: "failed"
- SEQUENCE CONTENT: "MGIMPRKVLAIKNFKERFDLLPKLKGVIAEKQPDILVVVGNILKNEALEKEYERAHLARREPNRKVIHENEHYIIETLDKFFREIGELGVKTFVVPGKNDAPLKIFLRAAYEAETAYPNIRVLHEGFAGWRGEFEVIGFGGLLTEHEFEEDFVLKYPRWYVEYILKFVNELKPRRLVTIFYTPPIGEFVDRTPEDPKHHGSAVVNTIIKSLNPEVAIVGHVGKGHELVGNTIVVNPGEFEEGRYAFLDLTQHKIKLEQFS"
  PROPERTY NAME: "protein production"
  RECORDED RESULT: "not failed"
- SEQUENCE CONTENT: "MMARVEKLRELMKENNLQGFLVTSPYNLRYLTNFTGTTGLAMITLDKAFFVTDFRYTEQAAEQATGFTIVKNTGHIFDEVADLAERLQLDNLAFEETQVSFADYSLLEEILPCELVPVMGLIEELREVK"
  PROPERTY NAME: "protein production"
  RECORDED RESULT: "not failed"
- SEQUENCE CONTENT: "MQYAYPLLAIFIWAGNTVINKLAVGAIFPAEIGFYRWLLAGLLFTPFMLKPVIKHWPEVRPNLWRIAILGVLGMAVYQSLAYFAASLTSATNMGIILSLMPLMSLAMAIAALGQRLTAGALVGAVLSFAGVLVVVSSGSLAALLQHGVNLGDAMMLVATLAYAIYSTLLKKWQLRLPPLVLLYLQVLVAVVVLLPLFLASPKVGPTLQNIPLVLYACLLASMLAPLAWMQAVVRLGPSRTTLFFNLLPLITALIAAVVLHEQLAWFHLVGGLLTLGGVILSERWTTVLGPLAGKPASAGQR"
  PROPERTY NAME: "protein production"
  RECORDED RESULT: "failed"
- SEQUENCE CONTENT: "MWKDLTEPLPEACAEGLEIRVVKSPEELADYAAVLSANWNPPAETVQRFYTEAAEYALRKNSPALYLVGYAGNRAVCSAEAFIHASVVGIYNISTLEHKRRRGYGGAITLATLHTARNAGCDTAVLQASEDGEPVYRKLGFTDCGRFTEYSL"
  PROPERTY NAME: "protein production"
  RECORDED RESULT: "failed"
- SEQUENCE CONTENT: "MKNFVVKTIANAGALAVAVWLLDKITLTGDSTGKKIGTLIVVALVFGLVNFLVKPIVKVLTFPLFILTLGLITLVVNALMLLLTSWLADKLDLSFHVEGFWTAVVGGLIISVVSWALNVVLPDDKD"
  PROPERTY NAME: "protein production"
  RECORDED RESULT: "failed"
- SEQUENCE CONTENT: "MINQRMIHMKNTKLLLAIATSAALLTGCQNTHGIDTNMAISSGLNAYKAATLSDADAKAIANQGCAEMDSGNQVASKSSKYGKRLAKIAKALGNNINGTPVNYKVYMTSDVNAWAMANGCVRVYSGLMDMMNDNEIEGVLGHELGHVALGHSLAEMKASYAIVAARDAISATSGVASQLSRSQLGDIAEGAINAKYSRDKESEADDFSFDLLKKRGISTQGLVGSFETLASLDGGRTQSMFDSHPPSTERAQHIRDRIASGKLEHHHHHH"
  PROPERTY NAME: "protein production"
  RECORDED RESULT: "failed"

Any idea what protein production was measured for MITYPKQMRDSGFKFEFFCDQGGYYQHVMDHLISCTQRQETPVNISNIPKCKAVLVTSLTGEIIKAQGRHLDMLLIVFED ?
failed

Same read-out for MEEISGGALTDTLTDIVTWAAKEVGAIALGASLGAIFGTAYAGRWGGVSGGIFGIGSIGQGVGMIAGVILGGVCFGIAAGIVGWDMTLDYAQGVMDAIYDGTLNFWSN ?
failed

What do we get for KHLSLTPELYKYLLDISLREHPALAALRKETSTMELANMQVAPEQAQFMQMLIRLTRAKKVLELGTFTGYSALAMSLALPDDGQVITCDINEGWTKHAHPYWREAKQEHKIKLRLGPALDTLHSLLNEGGEHQFDFIFIDADKTNYLNYYELALKLVTPKGLIAIDNIFWDGKVIDPNDTSGQTREIKKLNQVIKNDSRVFVSLLAIADGMFLVQPI ?
not failed

What do you get for LGINEISSSFFSLLLEILLLESQASLPMLEERVLDWQSSPASSLNSWFSAAPNWAELVLPALQYLAGESRAVPSSFSPFVEFKEKTQQWKLLGQSQDNEKELAALFQLWLETKDQAFCKQENEDSS ?
not failed
